Target: M184I HIV-1 RT (Human immunodeficiency virus type 1 group M subtype B, UniProt P03366, M783I)
Test: Mutant HIV-1 RT assay
pIC50: −log10 of the molar value.
measuredEndpoint: pIC50

// below: answered compounds
Nc1nc2c(ncn2C/C=C\COC(C(=O)O)P(=O)(O)O)c(=O)[nH]1 (stereo not shown); < 2.90
Nc1ncnc2c1ncn2C/C=C\COC(C(=O)O)P(=O)(O)O (stereo not shown); ≤ 2.60

Fill in pIC50 for each of the 2 compounds listed.
1. Nc1ccn(C/C=C\COC(C(=O)O)P(=O)(O)O)c(=O)n1 (stereo not shown)
2. Cc1cn(C/C=C\COC(C(=O)O)P(=O)(O)O)c(=O)[nH]c1=O (stereo not shown)

Reply |
1: < 2.90; 2: < 2.60

----------
Biological target: Human DNA Pol α (Homo sapiens)
Sequence (P09884 1-1462): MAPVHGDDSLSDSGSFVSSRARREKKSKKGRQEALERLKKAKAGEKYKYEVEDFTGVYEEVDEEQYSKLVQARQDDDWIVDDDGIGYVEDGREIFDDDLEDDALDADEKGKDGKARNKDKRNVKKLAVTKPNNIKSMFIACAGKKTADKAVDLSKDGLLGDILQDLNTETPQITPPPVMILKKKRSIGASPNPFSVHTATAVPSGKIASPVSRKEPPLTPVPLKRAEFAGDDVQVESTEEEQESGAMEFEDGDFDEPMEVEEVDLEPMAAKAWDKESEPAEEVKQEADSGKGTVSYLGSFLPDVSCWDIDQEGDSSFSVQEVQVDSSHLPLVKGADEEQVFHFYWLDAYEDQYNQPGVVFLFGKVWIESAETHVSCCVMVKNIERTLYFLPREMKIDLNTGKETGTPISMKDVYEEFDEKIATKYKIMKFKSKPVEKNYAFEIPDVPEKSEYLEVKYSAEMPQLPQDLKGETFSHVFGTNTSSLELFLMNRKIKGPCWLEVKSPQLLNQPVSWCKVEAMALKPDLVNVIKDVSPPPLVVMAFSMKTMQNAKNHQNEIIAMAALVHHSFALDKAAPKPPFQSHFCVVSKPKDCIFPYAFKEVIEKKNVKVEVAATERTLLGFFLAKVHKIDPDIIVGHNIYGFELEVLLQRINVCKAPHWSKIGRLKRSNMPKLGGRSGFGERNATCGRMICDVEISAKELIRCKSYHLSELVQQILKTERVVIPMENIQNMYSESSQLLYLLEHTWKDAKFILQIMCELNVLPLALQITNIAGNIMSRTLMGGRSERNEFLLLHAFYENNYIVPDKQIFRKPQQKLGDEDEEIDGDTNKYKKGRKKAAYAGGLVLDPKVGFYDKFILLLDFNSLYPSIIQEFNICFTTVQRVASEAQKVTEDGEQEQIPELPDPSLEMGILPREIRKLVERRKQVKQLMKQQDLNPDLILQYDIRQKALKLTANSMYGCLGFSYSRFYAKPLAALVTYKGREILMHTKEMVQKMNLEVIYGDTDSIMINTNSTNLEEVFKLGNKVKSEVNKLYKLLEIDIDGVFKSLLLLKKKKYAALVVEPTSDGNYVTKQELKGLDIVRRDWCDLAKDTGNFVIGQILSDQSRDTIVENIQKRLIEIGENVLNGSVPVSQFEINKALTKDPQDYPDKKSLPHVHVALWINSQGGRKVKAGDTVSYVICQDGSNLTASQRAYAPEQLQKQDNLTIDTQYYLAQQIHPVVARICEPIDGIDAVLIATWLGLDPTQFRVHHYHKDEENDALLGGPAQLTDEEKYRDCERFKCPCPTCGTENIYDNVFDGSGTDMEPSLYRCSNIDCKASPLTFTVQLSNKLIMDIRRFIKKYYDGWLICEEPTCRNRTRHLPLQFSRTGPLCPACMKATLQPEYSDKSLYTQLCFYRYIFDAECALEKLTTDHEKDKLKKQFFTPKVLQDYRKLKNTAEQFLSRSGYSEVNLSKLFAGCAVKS
Assay: Enzyme assay with human DNA polymerase α
Assay type: biochemical
Conditions: read-out: IC50 Human DNA Pol α; activated calf thymus DNA, [3H]dTTP
For each entry below, report its IC50 value.
Answers are plain numbers, in µM.

Example entries and their recorded answers appear below.
Cc1cn(C[C@H]2C[C@H]2COC(C(=O)O)P(=O)(O)O)c(=O)[nH]c1=O (relative stereo) [Compound 6b]; 183
O=C(O)C(OCCCCn1cc(F)c(=O)[nH]c1=O)P(=O)(O)O (centres unmarked) [Compound 6j]; 72
Cc1cn(C[C@H]2CCCC[C@H]2COC(C(=O)O)P(=O)(O)O)c(=O)[nH]c1=O (relative stereo) [Compound 6e]; 69
Cc1cn(C[C@H]2CC=CC[C@H]2COC(C(=O)O)P(=O)(O)O)c(=O)[nH]c1=O (relative stereo) [Compound 6c]; 48

Ask | Using the record for Cc1cn(C[C@H]2CCC[C@H]2COC(C(=O)O)P(=O)(O)O)c(=O)[nH]c1=O (relative stereo) [Compound 6a] , report its IC50.
Reply | 165

----------
Target: HSV-1 DNA polymerase (Human herpesvirus 1, UniProt P04293)
Sequence (P04293 whole entry): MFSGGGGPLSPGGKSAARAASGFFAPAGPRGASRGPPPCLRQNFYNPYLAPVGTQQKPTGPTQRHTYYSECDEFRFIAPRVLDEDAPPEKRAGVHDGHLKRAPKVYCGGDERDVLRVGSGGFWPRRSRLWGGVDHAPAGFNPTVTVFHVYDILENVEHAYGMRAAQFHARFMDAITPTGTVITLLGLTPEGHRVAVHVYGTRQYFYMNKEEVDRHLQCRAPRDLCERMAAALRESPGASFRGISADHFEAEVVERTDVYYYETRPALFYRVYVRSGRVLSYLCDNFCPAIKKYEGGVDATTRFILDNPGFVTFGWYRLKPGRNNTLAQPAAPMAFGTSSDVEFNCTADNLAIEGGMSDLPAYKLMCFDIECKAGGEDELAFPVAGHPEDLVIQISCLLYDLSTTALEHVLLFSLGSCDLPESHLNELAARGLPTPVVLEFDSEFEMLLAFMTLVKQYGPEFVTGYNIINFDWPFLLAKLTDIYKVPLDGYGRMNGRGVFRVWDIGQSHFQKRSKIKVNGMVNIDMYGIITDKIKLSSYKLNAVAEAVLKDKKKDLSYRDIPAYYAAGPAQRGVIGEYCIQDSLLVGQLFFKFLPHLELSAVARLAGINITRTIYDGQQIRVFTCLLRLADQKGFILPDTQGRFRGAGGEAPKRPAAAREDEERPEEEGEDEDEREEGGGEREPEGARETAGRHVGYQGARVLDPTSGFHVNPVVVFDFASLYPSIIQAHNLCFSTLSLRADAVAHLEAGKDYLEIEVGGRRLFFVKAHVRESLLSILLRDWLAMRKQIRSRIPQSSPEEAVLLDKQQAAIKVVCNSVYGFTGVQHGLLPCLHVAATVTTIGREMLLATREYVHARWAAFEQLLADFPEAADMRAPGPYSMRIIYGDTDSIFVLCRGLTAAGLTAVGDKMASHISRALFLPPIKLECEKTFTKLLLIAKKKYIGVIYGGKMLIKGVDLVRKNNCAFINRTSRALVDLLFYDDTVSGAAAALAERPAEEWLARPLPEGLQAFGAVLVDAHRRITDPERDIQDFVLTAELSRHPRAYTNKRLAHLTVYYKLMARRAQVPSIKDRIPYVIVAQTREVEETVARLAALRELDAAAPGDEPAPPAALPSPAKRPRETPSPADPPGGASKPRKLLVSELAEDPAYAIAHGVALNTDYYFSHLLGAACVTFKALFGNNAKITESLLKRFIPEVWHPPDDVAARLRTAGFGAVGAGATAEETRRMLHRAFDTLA
Assay: Enzyme assay with HSV-1 DNA polymerase
Type: biochemical
Conditions: read-out: IC50 HSV-1 DNA Pol; activated calf thymus DNA, [3H]dTTP
measuredEndpoint: IC50 (µM)
Give bare numbers, in µM.

# example entries with known answers
Cc1cn(C[C@H]2C[C@H]2COC(C(=O)O)P(=O)(O)O)c(=O)[nH]c1=O (relative stereo); 36
Cc1cn(C[C@H]2CC=CC[C@H]2COC(C(=O)O)P(=O)(O)O)c(=O)[nH]c1=O (relative stereo); 14
Cc1cn(C[C@H]2CCCC[C@H]2COC(C(=O)O)P(=O)(O)O)c(=O)[nH]c1=O (relative stereo); 8.6
Cc1cn(C[C@H]2CCC[C@H]2COC(C(=O)O)P(=O)(O)O)c(=O)[nH]c1=O (relative stereo); 14

Moving on to the next molecule.
Ask | Could you share which IC50 value was measured for O=C(O)C(OCCCCn1cc(F)c(=O)[nH]c1=O)P(=O)(O)O (centres unmarked) ?
Reply | 6.7

----------
Molecular target: HIV-1 RT (Human immunodeficiency virus type 1 group M subtype B, UniProt P03366)
Assay: HIV-1 reverse transcriptase assay with homopolymeric template/primers
Type: biochemical
Details: IC50 HIV-1 RT Poly rC.dG ([3H]dGTP), Poly rC.dG, [3H]dGTP
pIC50: −log10 of the molar value.
measuredEndpoint: pIC50

Nc1ncnc2c1ncn2[C@H]1CC[C@@H](COP(=O)(O)OP(=O)(O)OP(=O)(O)O)O1 [ddATP, reference compound]; < 4.70

// each compound listed below needs its pIC50
1. Nc1ncnc2c1ncn2C/C=C\COC(C(=O)O)P(=O)(O)O (centres unmarked) [Compound 6k]
2. Cc1cn(C/C=C\COC(C(=O)O)P(=O)(O)O)c(=O)[nH]c1=O (centres unmarked) [Compound 6g]
3. Nc1ccn(C/C=C\COC(C(=O)O)P(=O)(O)O)c(=O)n1 (centres unmarked) [Compound 6m]
4. Nc1nc2c(ncn2C/C=C\COC(C(=O)O)P(=O)(O)O)c(=O)[nH]1 (centres unmarked) [Compound 6l]

Reply |
["< 3.30", "< 3.30", "< 3.30", "< 3.30"]

----------
Would you kindly list log10(IC50) for each of these compounds?
Target: VZV DNA polymerase (Varicella-zoster virus, UniProt P09252)
Sequence (P09252 whole entry): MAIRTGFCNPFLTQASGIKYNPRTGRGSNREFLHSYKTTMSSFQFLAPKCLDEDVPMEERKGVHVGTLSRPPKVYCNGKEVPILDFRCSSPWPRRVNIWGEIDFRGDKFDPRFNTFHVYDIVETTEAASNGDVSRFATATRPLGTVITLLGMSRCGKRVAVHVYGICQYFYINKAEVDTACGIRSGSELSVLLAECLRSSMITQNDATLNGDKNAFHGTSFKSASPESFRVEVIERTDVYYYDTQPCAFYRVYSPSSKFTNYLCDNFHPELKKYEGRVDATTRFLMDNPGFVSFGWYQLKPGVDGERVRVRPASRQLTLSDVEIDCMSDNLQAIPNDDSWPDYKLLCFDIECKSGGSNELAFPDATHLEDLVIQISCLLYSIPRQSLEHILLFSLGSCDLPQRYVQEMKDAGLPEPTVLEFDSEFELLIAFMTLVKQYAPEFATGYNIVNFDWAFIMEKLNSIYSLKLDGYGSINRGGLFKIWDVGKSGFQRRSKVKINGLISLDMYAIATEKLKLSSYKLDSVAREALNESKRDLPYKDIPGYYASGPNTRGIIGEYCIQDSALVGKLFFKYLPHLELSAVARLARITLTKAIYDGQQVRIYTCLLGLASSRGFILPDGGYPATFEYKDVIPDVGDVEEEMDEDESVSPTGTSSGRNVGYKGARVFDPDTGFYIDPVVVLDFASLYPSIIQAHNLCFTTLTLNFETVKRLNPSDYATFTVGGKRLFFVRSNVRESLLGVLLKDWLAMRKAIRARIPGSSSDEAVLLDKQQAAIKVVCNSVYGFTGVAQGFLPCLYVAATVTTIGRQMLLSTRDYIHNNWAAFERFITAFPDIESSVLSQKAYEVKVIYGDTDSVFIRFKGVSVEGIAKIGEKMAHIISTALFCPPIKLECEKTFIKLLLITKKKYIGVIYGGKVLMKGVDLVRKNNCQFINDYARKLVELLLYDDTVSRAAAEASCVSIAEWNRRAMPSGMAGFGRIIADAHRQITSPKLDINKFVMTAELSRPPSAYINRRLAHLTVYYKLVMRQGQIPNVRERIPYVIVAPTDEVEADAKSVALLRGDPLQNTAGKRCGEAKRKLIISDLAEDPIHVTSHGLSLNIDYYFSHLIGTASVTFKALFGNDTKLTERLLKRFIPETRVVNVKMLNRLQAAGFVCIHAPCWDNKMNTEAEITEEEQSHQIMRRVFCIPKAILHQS
Assay: Enzyme assay with VZV DNA polymerase
Assay type: biochemical
Conditions: read-out: IC50 VZV DNA Pol; poly dA.oligo dT, [3H]dTTP
The figures below represent log10 of IC50, where IC50 is stated in µM.

Below, 4 compounds whose answers are already recorded.
Cc1cn(C[C@H]2CC=CC[C@H]2COC(C(=O)O)P(=O)(O)O)c(=O)[nH]c1=O (relative stereo) [Compound 6c]; 0.93
Cc1cn(C[C@H]2CCCC[C@H]2COC(C(=O)O)P(=O)(O)O)c(=O)[nH]c1=O (relative stereo) [Compound 6e]; 1.20
Cc1cn(C[C@H]2CCC[C@H]2COC(C(=O)O)P(=O)(O)O)c(=O)[nH]c1=O (relative stereo) [Compound 6a]; 1.86
Cc1cn(C[C@H]2C[C@H]2COC(C(=O)O)P(=O)(O)O)c(=O)[nH]c1=O (relative stereo) [Compound 6b]; 1.08

Now look at this one.
Ask | Look up log10(IC50) for this compound: O=C(O)C(OCCCCn1cc(F)c(=O)[nH]c1=O)P(=O)(O)O (centres unmarked) [Compound 6j]
Reply | 0.61

----------
Field: pIC50. Provide a value for each of the molecules that follow.
Molecular target: Human DNA Pol β (Homo sapiens)
Test: Enzyme assay with human DNA polymerase β
Format: biochemical
Conditions: read-out: IC50 Human DNA Pol β; activated calf thymus DNA, [3H]dTTP
Numbers only, as −log10 of the molar value.

Cc1cn(C[C@H]2C[C@H]2COC(C(=O)O)P(=O)(O)O)c(=O)[nH]c1=O (relative stereo); 3.41

Consider the record given below.
Ask | I have this molecule here, O=C(O)C(OCCCCn1cc(F)c(=O)[nH]c1=O)P(=O)(O)O (centres unmarked) , and I need its recorded pIC50.
Reply | 3.51
